# target: CDK6 (Homo sapiens)
# Sequence (Q00534 whole entry): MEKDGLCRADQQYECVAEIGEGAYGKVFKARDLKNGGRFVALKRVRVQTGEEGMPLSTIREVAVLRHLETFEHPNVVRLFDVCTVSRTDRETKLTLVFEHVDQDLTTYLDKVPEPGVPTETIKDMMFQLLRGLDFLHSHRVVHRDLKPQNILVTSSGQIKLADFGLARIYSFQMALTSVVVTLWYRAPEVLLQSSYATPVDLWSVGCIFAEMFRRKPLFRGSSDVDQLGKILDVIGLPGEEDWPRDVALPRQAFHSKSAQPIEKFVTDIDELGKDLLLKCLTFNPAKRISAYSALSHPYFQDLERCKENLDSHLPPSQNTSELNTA
# Sequence (P24385 whole entry partner): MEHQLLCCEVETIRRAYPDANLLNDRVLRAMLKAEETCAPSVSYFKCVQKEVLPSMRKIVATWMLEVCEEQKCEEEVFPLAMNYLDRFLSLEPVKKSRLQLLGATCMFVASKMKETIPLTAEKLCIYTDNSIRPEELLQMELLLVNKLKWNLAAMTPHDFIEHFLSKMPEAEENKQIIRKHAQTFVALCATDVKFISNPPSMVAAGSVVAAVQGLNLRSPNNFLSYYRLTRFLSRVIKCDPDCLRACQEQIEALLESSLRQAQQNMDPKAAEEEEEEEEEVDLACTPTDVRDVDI
# assay.notes: In vitro kinase inhibition IC50, luminescence (ADP Glo), retinoblastoma substrate
# condition: read-out: CDK6/D1 IC50
Entries and their measured pIC50 follow.
Interpret pIC50 as the negative base-10 log of the concentration measured in mol/L.

Study these solved cases before continuing.
>>> df
                                   molecule  recorded_endpoint  reported_result
0  N#Cc1cc2cnc(Nc3cnc4c(c3)CNCC4)nc2n(C2CCCC2)c1=O              pIC50             7.37
1  N#Cc1cc2cnc(Nc3ccc4c(c3)CCNC4)nc2n(C2CCC(F)(F)C2)c1=O (centres unmarked)              pIC50             7.19

So what's the measured pIC50 for this one? `N#Cc1cc2cnc(Nc3ccc4c(c3)CCN(C(=O)CO)C4)nc2n(C2CCCC2)c1=O`
8.22

Moving on to the next molecule: CS(=O)(=O)N1CCC(Nc2ncc3cc(C#N)c(=O)n([C@H]4C[C@@H]5CC[C@H]4C5)c3n2)CC1 [Compound No. 387]
7.77

Moving on to the next molecule: `CN(C)CCn1cc(Nc2ncc3cc(C#N)c(=O)n(C4CCCC4)c3n2)cn1`
7.47

Moving on to the next molecule: `Cn1ccc(S(=O)(=O)N2CCC(Nc3ncc4cc(C(F)F)c(=O)n([C@@H]5C[C@H]6CC[C@@H]5C6)c4n3)CC2)n1`
8.15

Moving on to the next molecule: `N#Cc1cc2cnc(Nc3cc(F)c(N4CCNCC4)c(F)c3)nc2n(C2CCCC2)c1=O`
8.46

---

# System: MCF-7 breast adenocarcinoma cells
# assay.notes: Cancer cell proliferation assay, single agent (cell viability)
# Format: cell-based
# condition: Homo sapiens, MCF7, Table 4; Rb positive; treatment 144 Hr with medium change at 72 Hr; Cell Titer-Glo or resazurin
Threshold 600 nM: IC50 strictly smaller gives TRUE, otherwise FALSE.

Previously resolved entries follow.
>>> print(df.to_string())
                                   molecule  class_name
0  N#Cc1cc2cnc(Nc3ccc4c(c3)C(=O)NC4)nc2n(C2CCCC2)c1=O [Compound No. 24]       FALSE
1  COCCn1cc(Nc2ncc3cc(C#N)c(=O)n(C4CCCC4)c3n2)cn1 [Compound No. 104]       FALSE
2  N#Cc1cc2cnc(Nc3ccc4c(c3)CCNC4)nc2n([C@H]2C[C@@H]3CC[C@H]2C3)c1=O (relative stereo) [Compound No. 354]        TRUE
3  N#Cc1cc2cnc(Nc3nc(C4CCNCC4)cs3)nc2n(C2CCCC2)c1=O [Compound No. 327]       FALSE
4  N#Cc1cc2cnc(Nc3ccc(N4CCNCC4=O)cc3)nc2n(C2CCCC2)c1=O [Compound No. 12]       FALSE

IC50 strictly < 600 nM for this molecule? N#Cc1cc2cnc(Nc3cnn(C4CCC(O)CC4)c3)nc2n(C2CCCC2)c1=O (centres unmarked) [Compound No. 51]
TRUE

Moving on to the next molecule: N#Cc1cc2cnc(Nc3ccc4c(c3)C(=O)NCCC4)nc2n(C2CCCC2)c1=O [Compound No. 79]
FALSE

Moving on to the next molecule: N#Cc1cc2cnc(Nc3cnn(C4CCNCC4)c3)nc2n(C2CCCC2)c1=O [Compound No. 50]
TRUE

---

# target: PI3Kδ kinase (Homo sapiens)
# Sequence (O00329 whole entry): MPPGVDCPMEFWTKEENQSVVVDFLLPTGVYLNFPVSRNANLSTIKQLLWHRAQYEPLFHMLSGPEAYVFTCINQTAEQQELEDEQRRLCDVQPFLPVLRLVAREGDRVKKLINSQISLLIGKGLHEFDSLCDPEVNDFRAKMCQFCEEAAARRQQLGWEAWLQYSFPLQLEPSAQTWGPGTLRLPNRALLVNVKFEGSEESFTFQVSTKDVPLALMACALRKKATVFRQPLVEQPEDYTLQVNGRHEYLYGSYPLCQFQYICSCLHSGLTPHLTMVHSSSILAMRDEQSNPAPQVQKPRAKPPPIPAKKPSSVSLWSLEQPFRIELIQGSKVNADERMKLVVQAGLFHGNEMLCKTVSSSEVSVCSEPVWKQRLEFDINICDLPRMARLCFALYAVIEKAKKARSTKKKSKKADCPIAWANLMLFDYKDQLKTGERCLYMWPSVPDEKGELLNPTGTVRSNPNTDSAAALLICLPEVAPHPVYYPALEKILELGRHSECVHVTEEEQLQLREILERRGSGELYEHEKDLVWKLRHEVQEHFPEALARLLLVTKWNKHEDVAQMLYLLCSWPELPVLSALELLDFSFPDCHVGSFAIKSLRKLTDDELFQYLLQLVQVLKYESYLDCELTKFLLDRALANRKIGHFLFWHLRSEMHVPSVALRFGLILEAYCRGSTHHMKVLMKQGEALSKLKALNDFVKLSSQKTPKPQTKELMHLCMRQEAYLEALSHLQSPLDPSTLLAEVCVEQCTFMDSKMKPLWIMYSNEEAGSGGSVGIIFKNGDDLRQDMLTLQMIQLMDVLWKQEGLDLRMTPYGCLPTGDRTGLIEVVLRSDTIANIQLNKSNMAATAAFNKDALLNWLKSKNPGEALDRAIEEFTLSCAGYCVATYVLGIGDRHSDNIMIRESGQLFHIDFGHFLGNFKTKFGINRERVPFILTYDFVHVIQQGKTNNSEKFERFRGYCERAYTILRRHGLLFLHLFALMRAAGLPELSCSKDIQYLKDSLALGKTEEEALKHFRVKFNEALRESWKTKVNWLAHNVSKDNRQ
# Sequence (P27986 whole entry partner): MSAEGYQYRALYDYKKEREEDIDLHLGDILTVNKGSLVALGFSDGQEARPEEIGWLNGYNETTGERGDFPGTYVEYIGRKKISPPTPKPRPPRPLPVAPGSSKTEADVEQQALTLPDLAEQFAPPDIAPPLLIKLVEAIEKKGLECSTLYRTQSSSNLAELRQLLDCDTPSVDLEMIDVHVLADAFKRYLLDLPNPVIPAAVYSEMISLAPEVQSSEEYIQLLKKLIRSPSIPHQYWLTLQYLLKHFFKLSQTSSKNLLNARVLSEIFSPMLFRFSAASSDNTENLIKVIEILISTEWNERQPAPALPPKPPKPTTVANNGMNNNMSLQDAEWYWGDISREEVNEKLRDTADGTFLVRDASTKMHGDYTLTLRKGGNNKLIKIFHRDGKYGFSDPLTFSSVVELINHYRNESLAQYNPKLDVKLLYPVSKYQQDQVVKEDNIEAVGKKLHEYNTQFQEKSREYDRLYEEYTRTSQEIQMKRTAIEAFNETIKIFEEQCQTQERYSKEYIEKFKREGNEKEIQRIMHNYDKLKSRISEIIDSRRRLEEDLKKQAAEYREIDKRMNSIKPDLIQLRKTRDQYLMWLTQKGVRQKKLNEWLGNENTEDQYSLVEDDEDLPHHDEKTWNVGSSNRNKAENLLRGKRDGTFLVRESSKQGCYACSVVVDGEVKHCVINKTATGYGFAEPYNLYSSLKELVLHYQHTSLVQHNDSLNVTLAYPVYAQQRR
Where a name gives a salt, the structure may show the parent alone.
Threshold 500 nM: IC50 strictly smaller gives 1, otherwise 0.

>>> df
                                   compound  class_name
0  N#Cc1cc2cnc(Nc3ccc4c(c3)CNCC4)cc2n(C2CCCC2)c1=O           0
1  CN(C)CCn1cc(Nc2ncc3cc(C#N)c(=O)n(C4CCCC4)c3n2)cn1           1
2  N#Cc1cc2cnc(Nc3ccc4c(c3)CCNC4)nc2n(C2CCCC2O)c1=O (stereo not shown)           0
3  CN1CCN(CCCn2cc(Nc3ncc4cc(C#N)c(=O)n(C5CCCC5)c4n3)cn2)CC1           0
4  CN1CCN(c2ccc(Nc3ncc4cc(C#N)c(=O)n(Cc5ccccc5)c4n3)cc2)CC1           1
5  N#Cc1cc2cnc(Nc3ccc4c(c3)CCNC4)nc2n(C2CCC2)c1=O [Compound No. 91, hydrochloride]           0

IC50 strictly < 500 nM for this compound? `N#Cc1cc2cnc(Nc3ccc(N4CCC(O)CC4)c(F)c3)nc2n(C2CCCC2)c1=O`
1

Moving on to the next compound: `CN1CCN(c2ccc(Nc3ncc4cc(C#N)c(=O)n(C5CCCC5)c4n3)cc2F)CC1`
0

---

# Tested on: MCF-7 breast adenocarcinoma cells
# assay.notes: Cancer cell proliferation assay, single agent (cell viability)
# Format: cell-based
# condition: Homo sapiens, MCF7, Table 4; Rb positive; treatment 144 Hr with medium change at 72 Hr; Cell Titer-Glo or resazurin
pIC50: −log10 of the molar value.
// label = 1 if pIC50 is not less than 6, otherwise -1

Previously resolved entries follow.
>>> print(df.to_string())
                                   compound                             target  class_name
0  N#Cc1cc2cnc(NC3CCN(S(=O)(=O)C(F)F)CC3)nc2n(C2CCCC2)c1=O [Compound No. 359]  MCF-7 breast adenocarcinoma cells           1
1  CS(=O)(=O)N1CCC(Nc2ncc3cc(C#N)c(=O)n(C45CC(C4)C5)c3n2)CC1 [Compound No. 369]  MCF-7 breast adenocarcinoma cells           1
2  CC(C)S(=O)(=O)N1CCC(Nc2ncc3cc(C#N)c(=O)n(C4CCCC4)c3n2)CC1 [Compound No. 355]  MCF-7 breast adenocarcinoma cells           1
3  CN(C)CCN1CCC(Nc2ncc3cc(C#N)c(=O)n(C4CCCC4)c3n2)CC1 [Compound No. 67]  MCF-7 breast adenocarcinoma cells          -1
4  N#Cc1cc2cnc(Nc3ccc(N4CCNCC4)cc3)nc2n(C2CCCc3ccccc32)c1=O (centres unmarked) [Compound No. 39]  MCF-7 breast adenocarcinoma cells          -1

Does N#Cc1cc2cnc(Nc3ccc4c(c3)CCN(CC(N)=O)C4)nc2n(C2CCCC2)c1=O [Compound No. 69] have a reported pIC50 of at least 6?
-1

---

# target: FMS kinase (Homo sapiens)
# Sequence (P07333 20-972): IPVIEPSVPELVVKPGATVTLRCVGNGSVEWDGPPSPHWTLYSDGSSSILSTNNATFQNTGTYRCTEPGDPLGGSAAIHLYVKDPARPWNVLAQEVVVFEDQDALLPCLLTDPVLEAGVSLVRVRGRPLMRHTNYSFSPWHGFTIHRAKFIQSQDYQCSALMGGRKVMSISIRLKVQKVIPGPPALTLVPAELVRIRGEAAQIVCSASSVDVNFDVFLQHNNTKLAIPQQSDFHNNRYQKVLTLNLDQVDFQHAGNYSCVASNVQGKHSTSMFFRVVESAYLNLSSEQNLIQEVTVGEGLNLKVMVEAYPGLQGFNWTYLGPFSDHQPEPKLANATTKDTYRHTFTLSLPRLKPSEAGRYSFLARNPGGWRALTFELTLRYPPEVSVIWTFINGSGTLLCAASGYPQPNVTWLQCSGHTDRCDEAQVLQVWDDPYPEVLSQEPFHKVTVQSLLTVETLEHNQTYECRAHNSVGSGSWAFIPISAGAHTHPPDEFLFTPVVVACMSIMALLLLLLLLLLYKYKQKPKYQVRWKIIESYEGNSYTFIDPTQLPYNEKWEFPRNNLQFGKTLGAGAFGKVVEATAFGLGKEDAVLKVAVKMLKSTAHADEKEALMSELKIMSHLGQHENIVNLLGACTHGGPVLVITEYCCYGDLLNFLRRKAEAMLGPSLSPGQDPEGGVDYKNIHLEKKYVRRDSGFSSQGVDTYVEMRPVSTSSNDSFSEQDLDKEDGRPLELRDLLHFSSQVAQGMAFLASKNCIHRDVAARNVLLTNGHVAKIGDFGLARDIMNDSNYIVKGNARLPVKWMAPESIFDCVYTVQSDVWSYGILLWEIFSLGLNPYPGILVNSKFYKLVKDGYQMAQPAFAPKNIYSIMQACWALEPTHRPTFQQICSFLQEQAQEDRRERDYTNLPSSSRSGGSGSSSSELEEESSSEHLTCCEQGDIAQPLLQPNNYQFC
Threshold 6 nM: IC50 strictly smaller gives met, otherwise not met.

Previously resolved entries follow.
>>> df
                                   compound  class_name
0  N#Cc1cc2cnc(Nc3ccc(N4CCNCC4=O)c(F)c3)nc2n(C2CCCC2)c1=O [Compound No. 57]         met
1  CC(C)N1CCc2cc(Nc3ncc4cc(C#N)c(=O)n(C5CCCC5)c4n3)ccc2C1 [Compound No. 45]         met
2  CN1CCC(c2ccc(Nc3ncc4cc(C#N)c(=O)n(C5CCCC5)c4n3)cc2)CC1 [Compound No. 40]         met
3  C[C@H]1CC[C@H](n2c(=O)c(C#N)cc3cnc(Nc4cccc(S(N)(=O)=O)c4)nc32)CC1 [Compound No. 2]     not met
4  Cn1ccc(S(=O)(=O)N2CCC(Nc3ncc4cc(C#N)c(=O)n(C5CCCC5)c4n3)CC2)n1 [Compound No. 373]     not met

IC50 strictly < 6 nM for this compound? CN1CCN(C(=O)Cn2cc(Nc3ncc4cc(C#N)c(=O)n(C5CCCC5)c4n3)cn2)CC1 [Compound 58]
not met

---

# System: MCF-7 breast adenocarcinoma cells
# assay.notes: Cancer cell proliferation assay, single agent (cell viability)
# Format: cell-based
# condition: Homo sapiens, MCF7, Table 4; Rb positive; treatment 144 Hr with medium change at 72 Hr; Cell Titer-Glo or resazurin
recorded.endpoint: IC50 (nM)
Note: unit nM is implicit; provide only the numeric part.

>>> df
                                   molecule  recorded_endpoint  reported_result
0  CN1CCC(c2ccc(Nc3ccc4cc(C#N)c(=O)n(C5CCCC5)c4n3)cc2)CC1 [Compound No. 98]               IC50             1720

So what's the measured IC50 for this one? N#Cc1cc2cnc(Nc3ccc4c(c3)CN(CCN)CC4)nc2n(C2CCCC2)c1=O [Compound No. 65]
569

Moving on to the next molecule: CN1CCc2cc(Nc3ncc4cc(C#N)c(=O)n(C5CCCC5)c4n3)ccc2C1 [Compound No. 38]
452

Moving on to the next molecule: N#Cc1cc2cnc(Nc3ccc4c(n3)CCNC4)nc2n(C2CCCC2)c1=O [Compound No. 61]
2730
